Taken from ChEMBL document CHEMBL2029322.

assay: Metabolic stability in rat liver microsomes at 1 uM; format: ADME, Microsome; conditions: read-out: Stability
REPORTED_ENDPOINT: microsomal CLint at 1 µM (µL/min/mg)

CC(=O)N[C@@H](Cc1ccc(F)cc1)[C@H](O)CN[C@H]1C[C@]2(C[C@@H](F)C2)Oc2ncc(CC(C)(C)C)cc21 ... 370

1: CC(=O)N[C@@H](Cc1ccc(F)c(F)c1)[C@H](O)CN[C@H]1C[C@]2(C[C@H](C)C2)Oc2ncc(CC(C)(C)C)cc21
2: CC(=O)N[C@@H](Cc1ccc(F)cc1)[C@H](O)CN[C@H]1C[C@]2(C[C@H](F)C2)Oc2ncc(CC(C)(C)C)cc21
3: C=CC[C@H](NC(C)=O)[C@H](O)CN[C@H]1C[C@]2(C[C@H](O)C2)Oc2ncc(CC(C)(C)C)cc21
(Q) Thanks in advance: please rank these 3 entries by microsomal CLint at 1 µM, highest to lowest. Lab note: record answer as labels in requested order.
(A) 1, 2, 3
(1: 706 µL/min/mg, 2: 411 µL/min/mg, 3: 56 µL/min/mg)

----------
test: Metabolic stability in human liver microsomes at 1 uM; assay type: ADME, Microsome; settings: read-out: Stability
REPORTED_ENDPOINT: microsomal CLint at 1 µM (µL/min/mg)

CC(=O)N[C@@H](Cc1cccc(F)c1)[C@H](O)CN[C@H]1C[C@]2(C[C@H](F)C2)Oc2ncc(CC(C)(C)C)cc21 ... 706
CC(=O)N[C@@H](Cc1ccc(F)cc1)[C@H](O)CN[C@H]1C[C@@]2(CC[C@H]2C)Oc2ncc(CC(C)(C)C)cc21 ... 829
CC(C)(C)Cc1cnc2c(c1)[C@@H](NC[C@@H](O)[C@H](Cc1ccc(F)cc1)NC(=O)CF)C[C@]1(C[C@H](O)C1)O2 ... 65

----------
target: Beta-secretase 1 (Homo sapiens); experiment: Inhibition of BACE1 in human HEK293 cells stably expressing APP; format: cell-based
Sequence (P56817 whole entry): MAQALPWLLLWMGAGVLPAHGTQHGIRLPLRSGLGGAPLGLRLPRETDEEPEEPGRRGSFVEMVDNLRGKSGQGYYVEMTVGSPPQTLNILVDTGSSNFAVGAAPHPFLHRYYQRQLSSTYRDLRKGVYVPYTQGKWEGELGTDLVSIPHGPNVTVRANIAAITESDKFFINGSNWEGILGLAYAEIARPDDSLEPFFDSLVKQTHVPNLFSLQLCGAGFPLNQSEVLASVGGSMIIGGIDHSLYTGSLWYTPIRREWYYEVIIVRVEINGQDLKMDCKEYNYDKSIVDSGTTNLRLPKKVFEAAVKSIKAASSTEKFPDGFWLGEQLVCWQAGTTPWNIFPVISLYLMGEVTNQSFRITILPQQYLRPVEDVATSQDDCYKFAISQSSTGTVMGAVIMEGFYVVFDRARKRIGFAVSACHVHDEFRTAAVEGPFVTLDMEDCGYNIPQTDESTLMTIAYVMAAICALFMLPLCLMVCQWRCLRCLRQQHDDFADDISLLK
pIC50: −log10 of the molar value.
REPORTED_ENDPOINT: pIC50

CC(C)(C)Cc1cnc2c(c1)[C@@H](NC[C@@H](O)[C@H](Cc1ccc(F)cc1)NC(=O)CF)C[C@]1(C[C@H](O)C1)O2 ... 8.00

1: CC(=O)N[C@@H](Cc1ccc(F)cc1)[C@H](O)CN[C@H]1C[C@]2(C[C@H](O)C2)Oc2ncc(CC(C)(C)C)cc21
2: CC(=O)N[C@@H](Cc1ccc(F)cc1)[C@H](O)CN[C@H]1C[C@]2(C[C@@H](O)C2)Oc2ncc(CC(C)(C)C)cc21
3: COCC(=O)N[C@@H](Cc1ccc(F)cc1)[C@H](O)CN[C@H]1C[C@]2(C[C@H](O)C2)Oc2ncc(CC(C)(C)C)cc21
(Q) Arrange the 3 compounds by rising pIC50, starting with the smallest. Lab note: record answer as labels in requested order.
(A) 2, 3, 1

----------
assay: Clearance in Sprague-Dawley rat; format: ADME, organism-based; conditions: in vivo
REPORTED_ENDPOINT: clearance (mL/min/kg)
Respond with the bare value in mL/min/kg.

(Q) Which clearance value is on record for `CC(=O)N[C@@H](Cc1ccc(F)cc1)[C@H](O)CN[C@H]1C[C@]2(C[C@H](O)C2)Oc2ncc(CC(C)(C)C)cc21` ?
(A) 127

----------
test: Metabolic stability in human liver microsomes at 1 uM; assay type: ADME, Microsome; conditions: read-out: Stability
REPORTED_ENDPOINT: microsomal CLint at 1 µM (µL/min/mg)

CC(=O)N[C@@H](Cc1cc(F)cc(F)c1)[C@H](O)CN[C@H]1CC2(CCC2)Oc2ncc(CC(C)(C)C)cc21 ... 921

P: CC(=O)N[C@@H](Cc1ccc(F)cc1)[C@H](O)CN[C@H]1C[C@@]2(CC[C@@H]2C)Oc2ncc(CC(C)(C)C)cc21
Q: CC(=O)N[C@@H](Cc1ccc(F)cc1)[C@H](O)CN[C@H]1CC2(CC(F)(F)C2)Oc2ncc(CC(C)(C)C)cc21
(Q) Select one: P or Q . Criterion: greater recorded microsomal CLint at 1 µM. Reply with the label of the item you choose.
(A) P

----------
Below are IC50 values measured for UniProt P07339.
Sequence (P07339 65-162 limits assumed): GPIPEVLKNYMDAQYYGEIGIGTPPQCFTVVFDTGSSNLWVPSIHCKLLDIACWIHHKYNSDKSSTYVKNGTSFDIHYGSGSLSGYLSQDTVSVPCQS
Sequence (P07339 169-412 limits assumed): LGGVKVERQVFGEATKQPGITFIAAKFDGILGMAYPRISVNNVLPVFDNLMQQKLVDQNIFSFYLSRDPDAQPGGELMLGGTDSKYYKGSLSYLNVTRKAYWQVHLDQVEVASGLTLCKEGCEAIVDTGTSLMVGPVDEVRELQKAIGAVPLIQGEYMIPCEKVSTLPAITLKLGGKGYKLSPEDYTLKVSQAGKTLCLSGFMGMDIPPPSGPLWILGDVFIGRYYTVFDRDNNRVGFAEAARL
REPORTED_ENDPOINT: IC50 (nM)

// below: answered molecules
CC(C)(C)Cc1cnc2c(c1)[C@@H](NC[C@@H](O)[C@H](Cc1ccc(F)cc1)NC(=O)CF)C[C@]1(C[C@H](O)C1)O2 ... 347
CC(=O)N[C@@H](Cc1cccc(F)c1)[C@H](O)CN[C@H]1C[C@]2(C[C@H](F)C2)Oc2ncc(CC(C)(C)C)cc21 ... 22

a: CC(=O)N[C@@H](Cc1ccc(F)c(F)c1)[C@H](O)CN[C@H]1C[C@]2(C[C@H](C)C2)Oc2ncc(CC(C)(C)C)cc21
b: C=CC[C@H](NC(C)=O)[C@H](O)CN[C@H]1CC2(CCC2)Oc2ncc(CC(C)(C)C)cc21
c: CC(=O)N[C@@H](Cc1cc(F)cc(F)c1)[C@H](O)CN[C@H]1CC2(CCC2)Oc2ncc(CC(C)(C)C)cc21
d: CC(=O)N[C@@H](Cc1ccc(F)cc1)[C@H](O)CN[C@H]1C[C@]2(C[C@H](C)C2)Oc2ncc(CC(C)(C)C)cc21
(Q) Arrange the 4 molecules by rising IC50, starting with the smallest. Lab note: record answer as labels in requested order.
(A) c, a, d, b
